System: A549 cells
Test: Drug exposure with or without simulated forces, 6-well Bioflex plates, live cell count and exponential growth model
Format: cell-based, human
Conditions: percentage reduction in live cell counts, 3-day drug exposure at IC90, simulated forces
Excerpt: Treatments 1, 2 and 3 served as unstretched controls for Treatments 4, 5 and 6, respectively. […] Cells were trypsinized and counted at the end of day 3 in Treatments 1 and 4, and at the end of day 6 in the other treatments, using a Beckman Coulter Vi-Cell Analyzer (Beckman Coulter, Fullerton, Calif.). […]
RECORDED_ENDPOINT: Effectiveness of The Drug, With forces (Ef) (%)

1. COc1cccc2c1C(=O)c1c(O)c3c(c(O)c1C2=O)C[C@@](O)(C(=O)CO)C[C@@H]3O[C@H]1C[C@H](N)[C@H](O)[C@H](C)O1 = 78.7
2. COc1cc2c(Nc3ccc(Br)cc3F)ncnc2cc1OCC1CCN(C)CC1 = 85.6
3. CC(=O)O[C@H]1C(=O)[C@@]2(C)[C@H]([C@H](OC(=O)c3ccccc3)[C@]3(O)C[C@H](OC(=O)[C@H](O)[C@@H](NC(=O)c4ccccc4)c4ccccc4)C(C)=C1C3(C)C)[C@]1(OC(C)=O)CO[C@@H]1C[C@@H]2O = 57.5
4. N.N.[Cl][Pt][Cl] [Cisplatin] = 74.7

Just for reference, patent US20130059324A1 is where these values come from.
